Entries annotated with measured Hepatotoxicity (moderate)
- Method notes: Highest frequency of moderate liver toxicity observed during clinical trials, expressed as a percentage. [column '% BIOL' in source]
- Stated conditions: human
Quick note: give the figure in %, leave out the unit.

Study these solved cases before continuing.
Smiles notation | Hepatotoxicity (moderate) (%)
COc1ccc(-c2noc(CC(=O)O)c2-c2ccc(OC)cc2)cc1 | 0
O=C(OCC(COC(=O)c1cccnc1)(COC(=O)c1cccnc1)COC(=O)c1cccnc1)c1cccnc1 | 5
C[C@]12Cc3c[nH]nc3C[C@@H]1CC[C@@H]1[C@@H]2CC[C@@]2(C)[C@H]1CC[C@]2(C)O | 26.1

Please find the next compound below.
Q: Form field: reported Hepatotoxicity (moderate) of CC(C)(C)C(=O)OCOC(=O)[C@@H]1N2C(=O)[C@@H](NC(=O)[C@H](N)c3ccccc3)[C@H]2SC1(C)C
Ans: 0

###

- Stated conditions: human
Measure name: Hepatotoxicity (steatosis)
The response must contain the number and no unit.

Molecule | Hepatotoxicity (steatosis)
Cc1c(C)c2c(c(C)c1O)CCC(C)(COc1ccc(CC3SC(=O)NC3=O)cc1)O2 (stereo not drawn) | 2
Clc1cccc(Cl)c1N=C1NCCN1 | 0
NCC[C@H](O)C(=O)N[C@@H]1C[C@H](N)[C@@H](O[C@H]2O[C@H](CN)[C@@H](O)[C@H](O)[C@H]2O)[C@H](O)[C@H]1O[C@H]1O[C@H](CO)[C@@H](O)[C@H](N)[C@H]1O | 0
CCC1=C(C[C@H]2NCCc3cc(OC)c(OC)cc32)C[C@H]2c3cc(OC)c(OC)cc3CCN2C1 [DEHYDROEMETINE] | 0
C=CCOc1ccccc1OCC(O)CNC(C)C (stereo not drawn) | 0
NCC1(CC(=O)O)CCCCC1 | 1

Q: Form field: reported Hepatotoxicity (steatosis) of CC(C(=O)O)c1cccc(Oc2ccccc2)c1 (stereo not drawn)
Ans: 0

Q: Please do the same for CCn1cc(C(=O)O)c(=O)c2cnc(N3CCNCC3)nc21 as well.
Ans: 0

Q: Please do the same for CN(C)CCC=C1c2ccccc2CCc2ccccc21 as well.
Ans: 0

###

- Stated conditions: human, serum
Measure name: Hepatotoxicity (moderate)
The response must contain the number and no unit.

Study these solved cases before continuing.
Compound | Hepatotoxicity (moderate)
FC(F)OC(Cl)C(F)(F)F (stereo not given) | 5
Cc1c(-c2ccccc2)oc2c(C(=O)OCCN3CCCCC3)cccc2c1=O [FLAVOXATE] | 0
O=c1cc[nH]c(=S)[nH]1 | 0
C[C@@H](O)[C@H]1C(=O)N2C(C(=O)O)=C(S[C@@H]3CN[C@H](C(=O)Nc4cccc(C(=O)O)c4)C3)[C@H](C)[C@H]12 | 4
CC(O)(CS(=O)(=O)c1ccc(F)cc1)C(=O)Nc1ccc(C#N)c(C(F)(F)F)c1 (stereo not given) [BICALUTAMIDE] | 1

Q: Form field: reported Hepatotoxicity (moderate) of O=C1c2ccccc2C(=O)C1c1ccccc1
Ans: 1

Q: Please do the same for O=C(O)c1cccnc1Nc1cccc(C(F)(F)F)c1 as well.
Ans: 0

Q: Please do the same for NCC1CC(=O)N(Cc2ccccc2)C1 (stereo not given) as well.
Ans: 1

Q: Please do the same for C#CCN(C)[C@H](C)Cc1ccccc1 as well.
Ans: 2

Q: Please do the same for Nc1c2c(nc3ccccc13)CCCC2O (stereo not given) as well.
Ans: 8
